REAP Off-Targets (number) reference
molecular target: REAP Off-Targets; assay: REAP, nanobody-Fc on yeast-displayed human antigen library
Give the number; off-targets is assumed, so skip it.

The cases that follow already have their REAP Off-Targets (number) on record.
TNFRSF17_Nb2.18 (Fc fusion, Nanobody expressed as an Fc fusion protein (fused with human IgG1) in Expi293 cells; not shown: human IgG1 Fc; nanobodies expressed as Fc fusion from vector pCER243) QVQLQESGGGLVQAGGSLRLSCAASGNIFRGWYMGWYRQAPGKEREFVATIASGGSTYYADSVKGRFTISRDNAKNTVYLQMNSLKPEDTAVYYCAVWDWEPGDYAYWGQGTQVTVSS : 1
TNFSF18_Nb94 (Fc fusion, Nanobody expressed as an Fc fusion protein (fused with human IgG1) in Expi293 cells; not shown: human IgG1 Fc; nanobodies expressed as Fc fusion from vector pCER243) QVQLQESGGGLVQAGGSLRLSCAASGNISLYYDMGWYRQAPGKERELVAAIDPGTITYYADSVKGRFTISRDNAKNTVYLQMNSLKPEDTAVYYCAVVIPDYVYRYVVGTVDYGYWGQGTQVTVSS : 1
TNF_Nb109 (Fc fusion, Nanobody expressed as an Fc fusion protein (fused with human IgG1) in Expi293 cells; not shown: human IgG1 Fc; nanobodies expressed as Fc fusion from vector pCER243) QVQLQESGGGLVQAGGSLRLSCAASGYISGEWFMGWYRQAPGKERELVAGISRGSTTYYADSVKGRFTISRDNAKNTVYLQMNSLKPEDTAVYYCAVYLTHKGYDGADGVVHHRYWGQGTQVTVSS : 7

Now consider the entry below.
## Task Query: REAP Off-Targets (number); subject: TNFRSF17_Nb2.19 (Fc fusion, Nanobody expressed as an Fc fusion protein (fused with human IgG1) in Expi293 cells; not shown: human IgG1 Fc; nanobodies expressed as Fc fusion from vector pCER243) QVQLQESGGGLVQAGGSLRLSCAASGTISHPTYMGWYRQAPGKEREFVAGISDGTNTYYADSVKGRFTISRDNAKNTVYLQMNSLKPEDTAVYYCAAITSWDYGYGYWGQGTQVTVSS
## Result 3
